biological target: FKBP12 (Homo sapiens, UniProt P62942); assay: nanoBRET assay, intracellular FKBP12 occupancy in HEK293T cells; details: intracellular occupancy
Sequence (P62942 whole entry): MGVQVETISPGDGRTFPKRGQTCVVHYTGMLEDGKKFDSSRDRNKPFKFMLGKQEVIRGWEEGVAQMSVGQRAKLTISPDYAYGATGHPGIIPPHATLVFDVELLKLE
pIC50: −log10 of the molar value.

Compound | pIC50
CC1CCN(C(=O)[C@@H]2CC[C@H]3[C@H](CO)C4CCCC(C(=O)N23)N4S(=O)(=O)c2cc(Cl)cc(Cl)c2)CC1 (stereo in doubt) [Compound 32] | 9.31
CCNC(=O)[C@@H]1CC[C@H]2[C@H](CO)C3CCCC(C(=O)N12)N3S(=O)(=O)c1cc(Cl)cc(Cl)c1 (stereo in doubt) [Compound 31] | 8.41
